Measured values drawn from patent US20190055314A1 for this set.

# Test Target: T1, CD137-hisFc fusion protein (Sino Biological Cat 10041-H03H) (human, UniProt Q07011 24-186)
# T1 construct: Bought; also called recombinant human CD137 (fused with human Fc and His tag); not shown: His tag and human Fc
# Protocol Text: BLI Octet, Fab
Measured Endpoint: koff (s⁻¹)
Express it in s⁻¹; write the number only.

Summary for this binder, Fab 4072 (Fab, V domains shown, Fab from E. coli; also called VH2/VL2) VH: EVQLVESGGGLVQPGGSLRLSCAASGFSLSTSGVAVSWIRQAPGKGLEWIGIINPNFGDTNYAQKFQGRVTISRDNSKNTLYLQLNSLRAEDTAVYYCARDEYYGGSYYFDYWGQGTLVTVSS VL: DIQLTQSPSSLSASVGDRVTITCRASQDVRTAVAWYQQKPGKAPKLLIYDASNLETGVPSRFSGSGSGTDFTLTISSLQPEDFATYYCQQSYDWPPTFGQGTKVEIKR : koff is 0.00107
